- Tested on: OVCAR-8 ovarian
- Method notes: NCI tumour cell line growth inhibition, 48 h
Give TGI for every item shown.
Answers are plain numbers, in µM.

Look over these answered cases.
{"columns": ["Molecule", "TGI, µM"],
 "data": [
  ["FC(F)(F)c1nc(-c2ccccc2)oc1Sc1nnc(Sc2oc(-c3ccccc3)nc2C(F)(F)F)s1", 59.8],
  ["CC(=O)OCCOCn1cnc2c(Cl)nc(Cl)nc21", 44.2],
  ["CCCCCCCCCCN(CCCCCCCCCC)C(=O)COc1c2cc(C(C)(C)C)cc1Cc1cc(C(C)(C)C)cc(c1OCC(=O)N(CCCCCCCCCC)CCCCCCCCCC)Cc1cc(C(C)(C)C)cc(c1OCC(=O)N(CCCCCCCCCC)CCCCCCCCCC)Cc1cc(C(C)(C)C)cc(c1OCC(=O)N(CCCCCCCCCC)CCCCCCCCCC)C2", 16.6],
  ["CC(=NNC(=S)Nc1ccc(C)cc1)c1cccc(C(C)=NNC(=S)Nc2ccc(C)cc2)n1", 34.5],
  ["CS(=O)(=O)c1cc(=O)c2ccccc2s1", 6.22]
]}

Hi! Can you tell me TGI for each of these molecules?
1. CCN(CC)CC(=O)O[C@]1(CC)C(=O)OCc2c1cc1n(c2=O)Cc2cc3ccccc3nc2-1
2. COc1cc2c(c(OC)c1OC)C(=O)[C@@H]1c3ccc([N+](=O)[O-])cc3C(=O)N(CCCBr)[C@H]21
3. CC(C)(C)[Si](C)(C)OCC1OC(n2cc(I)c(N)nc2=O)C(O[Si](C)(C)C(C)(C)C)C1O[Si](C)(C)C(C)(C)C (stereo not drawn)
4. NC(CCC(=O)O)C(=O)N1CCN(c2nc(N3CCCC3)c3nc(Cl)c(NCc4ccccc4)nc3n2)CC1 (stereo not drawn)

Result:
1. 3.65
2. 37.6
3. 30.6
4. 38.6

====

- System: IGROV1 ovarian
- Method notes: NCI tumour cell line growth inhibition, 48 h
Value kind: TGI (µM)
Numbers only, in µM.

{"columns": ["Smiles input", "Value kind", "Unit label", "Reported"],
 "data": [
  ["O=C1C=CC=C/C1=C1\\N=C(c2ccccc2OCC(=O)c2ccc(Br)cc2)SS1", "TGI", "µM", 71.3],
  ["Cc1ccc2c3c(c(=O)[nH]c2c1)C1(C(C#N)=C(N)O3)c2cc(Br)ccc2-c2ccc(Br)cc21", "TGI", "µM", 3.75],
  ["C/C=C(/C)C(=O)O[C@H]1C[C@@H]2[C@@H](O)c3occ(C)c3C[C@]2(C)[C@@H](C)C1", "TGI", "µM", 30.8]
]}

Hi! Can you tell me TGI for each of these compounds?
1. O=C(/C=C\n1cnc(-c2cc(C(F)(F)F)cc(C(F)(F)F)c2)n1)NNc1cnccn1
2. Cn1c2ccccc2c2c3[nH]c(=O)[nH]c(=O)c3c3c4ccccc4n(C)c3c21
3. CC(=O)OCCOCn1cnc2c(Cl)nc(Cl)nc21
4. C=CCc1cc(-c2cc(CC=C)c(O)c(CNCCCl)c2)cc(CNCCCl)c1O

Result:
[14.8, 12, 30.6, 51.4]

Problem: Lab note: need TGI for O=[N+]([O-])c1cccc2nc3ccccc3c(NCCC[N+]3([O-])CCOCC3)c12 on IGROV1 ovarian, anyone have it?
Result: 0.608
